biological target: human FXR alpha ligand binding domain (Homo sapiens); assay: FRET activity assay (ligand mediated cofactor peptide interaction, LANCE); details: GST-FXR-LBD / biotinylated SRC-1 peptide (676-700), read-out: F EC50
Assign EC50 to each entry below.
Report only the number, with the unit nM understood.

Lookup: Which EC50 is reported for this compound? O=C(O)c1cc(F)c2nc([C@]3(O)[C@@H]4CC[C@H]3C[C@H](OCc3c(C5CC5)cnn3-c3c(Cl)cccc3Cl)C4)sc2c1 [Example 47]
Found: 1.1

Lookup: Which EC50 is reported for this compound? O=C(NCCN1CCOCC1)c1cc(F)c2nc([C@]3(O)CC[C@@H](OCc4c(-c5c(Cl)cncc5Cl)noc4C4CC4)CC3)sc2c1 [Example 17]
Found: 150

Lookup: Which EC50 is reported for this compound? O=C(O)c1ccc2nc([C@]3(O)[C@@H]4CC[C@H]3C[C@@H](OCc3c(-c5c(Cl)cccc5Cl)noc3C3CC3)C4)sc2c1 [Example 11-23]
Found: 41

Lookup: Which EC50 is reported for this compound? O[C@@]1(c2nc3ccc(CN4CCOCC4)cc3s2)[C@@H]2CC[C@H]1C[C@H](OCc1c(-c3c(Cl)cccc3Cl)noc1C1CC1)C2 [Example 43]
Found: 15

Lookup: Which EC50 is reported for this compound? O=C(O)c1ccc(C2(O)C[C@H]3CC(OCc4c(-c5c(Cl)cccc5Cl)noc4C4CC4)C[C@H]3C2)c(F)c1 (stereo partly drawn) [Example 11-47]
Found: 12

Lookup: Which EC50 is reported for this compound? O=C(O)c1ccnc2ccc([C@]3(O)CC[C@H](OCc4c(-c5c(Cl)cccc5Cl)noc4C4CC4)CC3)cc12 [Example 31]
Found: 4900

###

biological target: FXR ligand binding domain (Homo sapiens); experiment: Mammalian One Hybrid (M1H) assay, Gal4 promoter driven transactivation in HEK293 cells; details: Gal4-FXR-LBD luciferase reporter, 16 h
ATTRIBUTE_MEASURED: log10(EC50) (log10 of the value in nM)
A value of 2 here means EC50 of 100 in nM, since values are log10.

Lookup: Which log10(EC50) is reported for this molecule? O[C@@]1(c2nc3ccccc3s2)[C@@H]2CC3C[C@H]1C[C@](OCc1c(-c4c(Cl)cccc4Cl)noc1C1CC1)(C3)C2 [Example 24b]
Found: 2.86

Lookup: Which log10(EC50) is reported for this molecule? CC(C)c1onc(-c2c(Cl)cccc2Cl)c1CO[C@@H]1C[C@H]2CC[C@@H](C1)[C@]2(O)c1nc2c(F)cc(C(=O)O)cc2s1 [Example 11-51]
Found: -0.21

Lookup: Which log10(EC50) is reported for this molecule? O=C(O)c1ccc2nc([C@]3(O)CC[C@@H](OCc4c(-c5c(Cl)cccc5Cl)noc4C4CC4)CC3)sc2c1F [Example 14-1]
Found: 2.74

Lookup: Which log10(EC50) is reported for this molecule? O=C(O)c1cc(F)c2nc(C3(O)C[C@H]4CC[C@@H](C3)C4OCc3c(-c4c(Cl)cccc4Cl)noc3C3CC3)sc2c1 (single isomer, unassigned) [Example 11-55]
Found: 1.38

Lookup: Which log10(EC50) is reported for this molecule? O=C(O)c1cc(F)c2nc([C@]3(O)CC[C@@H](OCc4c(-c5c(Cl)cccc5Cl)noc4C4CC4)CC3)sc2c1 [Example 11-31]
Found: 2.11

Lookup: Which log10(EC50) is reported for this molecule? O=C(O)c1cccc([C@]2(O)[C@@H]3CC[C@H]2C[C@H](OCc2c(-c4c(Cl)cccc4Cl)noc2C2CC2)C3)c1 [Example 11-25]
Found: 2.63

Lookup: Which log10(EC50) is reported for this molecule? O=C(O)c1cc(F)c2nc([C@]3(O)[C@@H]4CC[C@H]3C[C@H](OCc3c(-c5c(Cl)cncc5Cl)noc3C3CC3)C4)sc2c1 [Example 11-29]
Found: 0.76

Lookup: Which log10(EC50) is reported for this molecule? O=C(O)c1cc(F)c2nc([C@]3(O)[C@@H]4CC[C@H]3C[C@H](OCc3c(-c5c(Cl)cccc5Cl)noc3C3CC3)C4)sc2c1 [Example 11-27]
Found: 0.00

Lookup: Which log10(EC50) is reported for this molecule? O=C(O)c1cc(F)c2nc([C@]3(O)[C@@H]4CC[C@H]3C[C@H](OCc3c(C5CC5)cnn3-c3c(Cl)cccc3Cl)C4)sc2c1 [Example 47]
Found: 0.90

Lookup: Which log10(EC50) is reported for this molecule? O=C(O)c1nsc2ccc([C@]3(O)CC[C@@H](OCc4c(-c5c(Cl)cccc5Cl)noc4C4CC4)CC3)cc12 [Example 33]
Found: 3.43

Lookup: Which log10(EC50) is reported for this molecule? O=C(O)CNC(=O)c1cc(F)c2nc([C@]3(O)[C@@H]4CC[C@H]3C[C@H](OCc3c(-c5c(Cl)cccc5Cl)noc3C3CC3)C4)sc2c1 [Example 38]
Found: 3.10

Lookup: Which log10(EC50) is reported for this molecule? CS(=O)(=O)NC(=O)c1cc(F)c2nc([C@]3(O)CC[C@@H](OCc4c(-c5c(Cl)cccc5Cl)noc4C4CC4)CC3)sc2c1 [Example 16]
Found: 3.28

###

target: human FXR alpha ligand binding domain (Homo sapiens); assay: FRET activity assay (ligand mediated cofactor peptide interaction, LANCE); settings: GST-FXR-LBD / biotinylated SRC-1 peptide (676-700), read-out: F EC50
ATTRIBUTE_MEASURED: pEC50
The meaning of pEC50 here: minus log10 of the concentration in molar units.

Lookup: Which pEC50 is reported for this compound? "O=C(O)c1ccc2nc([C@]3(O)[C@@H]4CC[C@H]3C[C@H](OCc3c(-c5c(Cl)cccc5Cl)noc3C3CC3)C4)sc2c1"
Found: 8.43

Lookup: Which pEC50 is reported for this compound? "O=C(O)c1ccnc([C@]2(O)[C@@H]3CC[C@H]2C[C@H](OCc2c(-c4c(Cl)cccc4Cl)noc2C2CC2)C3)c1"
Found: 7.28

Lookup: Which pEC50 is reported for this compound? "O=C(O)c1ccc2nc([C@]3(O)CC[C@@H](OCc4c(-c5ccccc5OC(F)(F)F)noc4C4CC4)CC3)sc2c1"
Found: 6.64

###

Molecular target: FXR ligand binding domain (Homo sapiens)
Sequence (Q96RI1 187-472 isoform Q96RI1-2): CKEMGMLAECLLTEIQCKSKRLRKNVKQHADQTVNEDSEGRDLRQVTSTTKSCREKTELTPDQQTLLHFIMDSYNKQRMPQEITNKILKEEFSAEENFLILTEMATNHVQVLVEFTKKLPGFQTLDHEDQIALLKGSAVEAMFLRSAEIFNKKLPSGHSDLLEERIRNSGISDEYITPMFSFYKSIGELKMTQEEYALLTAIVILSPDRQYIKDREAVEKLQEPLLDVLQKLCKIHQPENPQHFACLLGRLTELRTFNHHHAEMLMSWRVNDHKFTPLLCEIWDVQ
Experiment: Mammalian One Hybrid (M1H) assay, Gal4 promoter driven transactivation in HEK293 cells
Conditions: Gal4-FXR-LBD luciferase reporter, 16 h
Assign log10 of EC50 to each entry below.
A value of 2 here means EC50 of 100 in nM, since values are log10.

Lookup: Which log10 of EC50 is reported for this molecule? "O=C(O)c1cc(F)c2nc([C@]3(O)CC[C@@H](OCc4c(-c5c(Cl)cncc5Cl)noc4C4CC4)CC3)sc2c1"
Found: 2.58

Lookup: Which log10 of EC50 is reported for this molecule? "O=C(O)Cc1nc([C@]2(O)[C@@H]3CC[C@H]2C[C@H](OCc2c(-c4c(Cl)cccc4Cl)noc2C2CC2)C3)oc1C(F)(F)F"
Found: 0.90

Lookup: Which log10 of EC50 is reported for this molecule? "O=C(O)c1cccc2nc([C@]3(O)CC[C@@H](OCc4c(-c5c(Cl)cccc5Cl)noc4C4CC4)CC3)ccc12"
Found: 2.08

Lookup: Which log10 of EC50 is reported for this molecule? "O=C(O)c1ccc2nc([C@]3(O)CC[C@@H](OCc4c(-c5ccccc5OC(F)(F)F)noc4C4CC4)CC3)sc2c1"
Found: 2.43

Lookup: Which log10 of EC50 is reported for this molecule? O=C(O)c1ccc2nc(C3(O)CC4(CC(OCc5c(-c6c(Cl)cccc6Cl)noc5C5CC5)C4)C3)sc2c1 (single isomer, unassigned) [Example 11-4a]
Found: 2.48

Lookup: Which log10 of EC50 is reported for this molecule? "O=C(O)c1ccnc([C@]2(O)CC[C@@H](OCc3c(-c4c(Cl)cccc4Cl)noc3C3CC3)CC2)c1"
Found: 1.71

###

target: FXR ligand binding domain (Homo sapiens, UniProt Q96RI1); assay: Mammalian One Hybrid (M1H) assay, Gal4 promoter driven transactivation in HEK293 cells; details: Gal4-FXR-LBD luciferase reporter, 16 h
pEC50: −log10 of the molar value.
Decide by pEC50: equal to or exceeding 6 means Criterion met, less means Criterion not met.

Lookup: Assess whether reported pEC50 for "O=C(O)c1ccc2nc([C@]3(O)[C@@H]4CC[C@H]3C[C@H](OCc3c(-c5c(Cl)cccc5Cl)noc3C3CC3)C4)sc2c1" sits at 6 or higher.
Found: Criterion met

Lookup: Assess whether reported pEC50 for O=C(O)c1ccc2nc(C3(O)CC4(CC(OCc5c(-c6c(Cl)cccc6Cl)noc5C5CC5)C4)C3)sc2c1 (single isomer, unassigned) [Example 11-4b] sits at 6 or higher.
Found: Criterion met

Lookup: Assess whether reported pEC50 for "O=C(O)c1ccc2nc([C@]3(O)CC[C@@H](OCc4c(C5CCC(F)(F)CC5)noc4C4CC4)CC3)sc2c1" sits at 6 or higher.
Found: Criterion not met

Lookup: Assess whether reported pEC50 for CC1(C)C[C@](O)(c2nc3c(F)cc(C(=O)O)cc3s2)CC[C@H]1OCc1c(-c2c(Cl)cccc2Cl)noc1C1CC1 (racemic) sits at 6 or higher.
Found: Criterion met

Lookup: Assess whether reported pEC50 for OC1(c2nc3ccccc3s2)C2CC3CC1CC(OCc1c(-c4c(Cl)cccc4Cl)noc1C1CC1)(C3)C2 (stereo not drawn) [Example 24a] sits at 6 or higher.
Found: Criterion met

Lookup: Assess whether reported pEC50 for "O=C(O)c1ccc2nc([C@]3(O)CC[C@@H](OCc4c(-c5ccccc5C(F)F)noc4C4CC4)CC3)sc2c1" sits at 6 or higher.
Found: Criterion not met

Where do these numbers come from? They come from patent US9751874B2.
